// data source = patent US6806276B2

Molecular target: human peripheral type cannabinoid receptor (hCB2) (Homo sapiens, UniProt P34972)
Construct: expressed in transfected cells; host or cells: CHO cells
Sequence (P34972 whole entry): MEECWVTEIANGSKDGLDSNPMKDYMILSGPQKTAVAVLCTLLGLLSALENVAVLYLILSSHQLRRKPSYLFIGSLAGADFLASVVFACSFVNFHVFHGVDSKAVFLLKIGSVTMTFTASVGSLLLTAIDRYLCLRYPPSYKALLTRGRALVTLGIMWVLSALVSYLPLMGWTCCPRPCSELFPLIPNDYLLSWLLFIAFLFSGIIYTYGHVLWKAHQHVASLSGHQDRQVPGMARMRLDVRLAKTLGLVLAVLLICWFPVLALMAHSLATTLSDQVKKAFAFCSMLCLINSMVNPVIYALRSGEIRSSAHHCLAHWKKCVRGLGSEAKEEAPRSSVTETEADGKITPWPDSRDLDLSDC
Assay: Binding assay (in vitro), [3H]Win55212-2 displacement, membrane fractions of human CB2-CHO
Conditions: indicator of selectivity for peripheral type receptors
EXPERIMENTAL READOUT: C/S (Ki central type receptors / Ki peripheral type receptors)

CCCCCOc1c(OC)ccc2cc(C(=O)NCc3ccc(F)cc3)c(=O)n(C)c12	330
CCCCCOc1c(OC)ccc2cc(C(=O)NCc3ccc(F)cc3)c(=O)[nH]c12	344
CCOc1c(OC)ccc2cc(C(=O)NCc3ccc4c(c3)OCO4)c(=O)[nH]c12	7713
